# System: RXF 393 renal
# procedure summary: NCI tumour cell line growth inhibition, 48 h; in the data active = GI50 below about 0.43 µM; inactive = the rest
Outcome (select one): y = active, n = inactive

Solved entries (count: 5):
- ClC1=C(Cl)C(Cl)=C(Cl)C1=Cc1ccccc1: n
- O=[N+]([O-])c1ccc2scc3c4ccccc4nc-3c2c1: n
- CC1SC(c2ccc(Cl)c(Cl)c2)N(NC(=O)C(O)c2ccccc2)C1=O (centres undefined): n
- Oc1c(Cl)cc(Cl)c2ccc(Cn3cc(-c4cc(F)cc(F)c4)nn3)nc12: n
- O=C(Nc1ccc(Oc2cccc(Cl)c2)c(Cl)c1)c1cnccn1: n

Please share the test call associated with `COc1cc2c(cc1OCCCNC(=O)/C=C1/C[C@H]3C=Nc4cc(OCc5ccccc5)c(OC)cc4C(=O)N3C1)NC(=O)[C@@H]1CCCN1C2=O` .
n

Please share the test call associated with `Cc1ccc(C)c(COc2cc(NC(=O)c3ccc4c(c3)OCO4)ccc2N(C)S(C)(=O)=O)c1` .
y

Please share the test call associated with `COc1cc2c(cc1OCCCCCN1CCN(c3cc(=O)oc4ccccc34)CC1)N=C[C@@H]1CCCN1C2=O` .
y

Please share the test call associated with `Cn1cc(C2=C(c3c4n(c5ccccc35)CCN(C(N)=S)C4)C(=O)NC2=O)c2ccccc21` .
n

Please share the test call associated with CCn1cc(C(=O)N/N=C/c2ccc(Br)cc2)c(=O)c2cc(F)c(N3CCNC(C)C3)c(F)c21 (centres undefined) .
n

Please share the test call associated with COc1cc(C(C)c2ccc3c(ccn3C)c2)cc(OC)c1OC (centres undefined) .
y

Please share the test call associated with `Cc1cc(Nc2ncc(F)c(N[C@H]3[C@@H](C(N)=O)[C@@H]4C=C[C@H]3C4)n2)ccc1N1CCN(C)CC1` .
y

Please share the test call associated with `Cc1nc2ccccc2c(/C=C/c2ccc(Cl)cc2)c1C(=O)/C=C/c1ccc(F)cc1` .
n

Please share the test call associated with `COc1cnc2c(c1)C(=O)c1c-2n(CCCBr)c(=O)c2cc([N+](=O)[O-])ccc12` .
y

---

# Tested on: HS 578T breast
# procedure summary: NCI tumour cell line growth inhibition, 48 h
assay endpoint: GI50

Examples with answers:
• COc1cc(NC(=O)c2ccc(C(F)(F)F)nc2Nc2cc(Cl)ccc2C)cc(OC)c1OC = 3.9 µM
• CC(=O)OC1CCC(OC(C)=O)[C@H]2[C@@H]1[C@@H]1S[C@H]2c2ccccc21 (stereo not given in full) = 76.1 µg/mL

I'd like to know its GI50. The compound in question is `Cc1cccc(NC2=C(Cl)C(=O)N(Cc3ccc(Cl)cc3)C2=O)c1`
7.35 µM

I'd like to know its GI50. The compound in question is `ClC1=C(Cl)C(Cl)=C(Cl)C1=Cc1ccccc1`
0.915 µM

I'd like to know its GI50. The compound in question is `Fc1ccc(-c2nnc3sc(-c4cc(Cl)cc(Cl)c4)nn23)cc1Cl`
45.2 µM

---

Listed here: items and their measured GI50.
# Tested on: T-47D breast
# procedure summary: NCI tumour cell line growth inhibition, 48 h

Examples with answers:
* O=C(NC1CCC(Br)CC1)C1CCCC(S(=O)(=O)NC2CCCCC2)C1 (stereo not given) | 6.05 µM
* O=C(CNc1c(Cl)cccc1Cl)Nc1ccc(-c2nc3ccccc3s2)cc1 | 1.89 µM
* CC1SC(c2ccc(Cl)c(Cl)c2)N(NC(=O)C(O)c2ccccc2)C1=O (stereo not given) | 67.5 µM

I'd like to know its GI50. The molecule in question is `Oc1c(Cl)cc(Cl)c2ccc(Cn3cc(-c4cc(F)cc(F)c4)nn3)nc12`
2.27 µM

I'd like to know its GI50. The molecule in question is `Fc1ccc(-c2nnc3sc(-c4cc(Cl)cc(Cl)c4)nn23)cc1Cl`
> 100 µM
